# Assayed Target: human RXFP1 (Homo sapiens)
# Construct: expressed in transfected cells
# Assay: RXFP1 cAMP assay (hRXFP1 HEK293 cAMP assay, HTRF)
# Format: cell-based
# Experimental Parameters: HEK293 cells stably expressing human RXFP1, 30 min at room temperature, read-out: cAMP hRXFP1 HEK293 Assay EC50
pEC50: −log10 of the molar value.
Examples of molecules with documented pEC50 follow.

Molecule	pEC50
COc1ccc(C2=NOC3CC(C(N)=O)CC23)cc1C(=O)N[C@H]1[C@@H](C(=O)Nc2ccc(F)c(C(F)(F)F)c2)[C@H]2CC[C@@H]1/C2=C\C1CC1 (single isomer, unassigned) [compound 459]	8.60
COc1cc(F)c(F)cc1C(=O)NC1C2CCC(C2=Cc2ncco2)C1C(=O)Nc1ccc(F)c(C(F)(F)F)c1 (centres unmarked) [Example 145]	5.89
COc1ccc(C2=NOC3(CCCC3)C2)cc1C(=O)N[C@H]1[C@@H](C(=O)Nc2ccc(F)c(C(F)(F)F)c2)[C@H]2CC[C@@H]1/C2=C\C1CC1 [compound 642]	6.66
COc1ccc(-c2cc(C(=O)O)ccc2F)cc1C(=O)NC1C2CCC(/C2=C/c2cn(C[Si](C)(C)C)nn2)[C@@H]1C(=O)Nc1ccc(F)c(C(F)(F)F)c1 (some centres unmarked) [Example 325]	5.32
COc1ccc(C2=NOC3CC(CF)CC23)cc1C(=O)N[C@H]1[C@@H](C(=O)Nc2ccc(F)c(C(F)(F)F)c2)[C@H]2CC[C@@H]1/C2=C\C1CC1 (some centres unmarked) [compound 866]	8.32
COc1ccc(C2=NOC(C3(O)CC3)C2)cc1C(=O)N[C@H]1[C@@H](C(=O)NCC(C)(C)C)[C@H]2CC[C@@H]1/C2=C\C1CC1 (some centres unmarked) [compound 618]	6.81
COc1ccc(C2=CCCN(CC(=O)O)C2)cc1C(=O)N[C@H]1[C@@H](C(=O)Nc2ccc(F)c(C(F)(F)F)c2)[C@H]2CC[C@@H]1/C2=C\C1CC1 [Example 259]	6.09
COc1ccc(C2=NOC3COCC23)cc1C(=O)N[C@H]1[C@@H](C(=O)NC2CCOC(C)(C)C2)[C@H]2CC[C@@H]1/C2=C\C1CC1 (single isomer, unassigned) [compound 679]	6.25
COc1ccc(-c2cc(C(=O)NCC(=O)O)ccc2F)cc1C(=O)N[C@@H]1C2CCC(C2=C(C)C)[C@@H]1C(=O)Nc1ccc(F)c(C(F)(F)F)c1 (some centres unmarked) [compound 193]	6.52
COc1ccc(-c2cc(C(O)C(=O)O)ccc2F)cc1C(=O)NC1C2CCC(/C2=C/C2CCC2)C1C(=O)Nc1ccc(F)c(C(F)(F)F)c1 (centres unmarked) [compound 356]	8.30
COc1ccc(C2=NOC3CC(CO)CC23)cc1C(=O)N[C@@H]1C2CCC(/C2=C/C2CC2)[C@@H]1C(=O)Nc1ccc(F)c(C(F)(F)F)c1 (single isomer, unassigned) [compound 431]	6.60

---

Examples of molecules with documented pEC50 follow.
# Assayed Target: human RXFP1 (Homo sapiens, UniProt Q9HBX9)
# Construct: expressed in transfected cells
# Sequence (Q9HBX9 whole entry): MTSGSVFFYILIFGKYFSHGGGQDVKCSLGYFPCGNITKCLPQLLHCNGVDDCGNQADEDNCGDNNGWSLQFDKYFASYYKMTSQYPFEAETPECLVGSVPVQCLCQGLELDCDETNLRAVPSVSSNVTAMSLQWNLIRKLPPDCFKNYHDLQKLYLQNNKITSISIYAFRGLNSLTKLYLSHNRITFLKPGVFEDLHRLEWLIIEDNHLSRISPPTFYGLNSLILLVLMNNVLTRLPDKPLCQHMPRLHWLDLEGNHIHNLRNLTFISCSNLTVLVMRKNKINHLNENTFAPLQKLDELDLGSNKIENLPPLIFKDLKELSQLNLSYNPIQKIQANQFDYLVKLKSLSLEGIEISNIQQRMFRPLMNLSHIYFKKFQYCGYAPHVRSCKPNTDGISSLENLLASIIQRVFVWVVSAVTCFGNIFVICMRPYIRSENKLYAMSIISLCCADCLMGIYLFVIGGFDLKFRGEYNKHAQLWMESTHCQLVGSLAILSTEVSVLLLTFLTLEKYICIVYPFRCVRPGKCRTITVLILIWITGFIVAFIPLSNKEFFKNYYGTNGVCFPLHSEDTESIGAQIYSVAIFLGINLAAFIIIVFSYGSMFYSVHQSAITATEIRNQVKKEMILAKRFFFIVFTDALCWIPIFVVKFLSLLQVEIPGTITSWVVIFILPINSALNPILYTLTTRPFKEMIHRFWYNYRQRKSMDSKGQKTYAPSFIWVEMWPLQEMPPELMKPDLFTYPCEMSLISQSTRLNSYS
# Assay: RXFP1 cAMP assay (hRXFP1 HEK293 cAMP assay, HTRF)
# Type: cell-based
# Experimental Parameters: HEK293 cells stably expressing human RXFP1, 30 min at room temperature, read-out: cAMP hRXFP1 HEK293 Assay EC50
pEC50: −log10 of the molar value.

Molecule	pEC50
COc1cc(F)c(F)cc1C(=O)N[C@@H]1C2CCC(/C2=C/c2ccc3ccccc3c2)[C@@H]1C(=O)Nc1ccc(F)c(C(F)(F)F)c1 (some centres unmarked) [compound 18]	6.20
COc1ccc(-c2cc(C(N)=O)ccc2F)cc1C(=O)N[C@@H]1C2CCC(C2=C(C)C)[C@@H]1C(=O)Nc1ccc(F)c(C(F)(F)F)c1 (some centres unmarked) [Example 121]	7.80
COc1cc(C)c(C2=NOC3COCC23)cc1C(=O)N[C@H]1[C@@H](C(=O)Nc2ccc(F)c(C(F)(F)F)c2)[C@H]2CC[C@@H]1/C2=C\C1CC1 (some centres unmarked) [compound 532]	7.64
COc1ccc(C2CC3CN(C(=O)OC(C)(C)C)CC32)cc1C(=O)N[C@H]1[C@@H](C(=O)Nc2ccc(F)c(C(F)(F)F)c2)[C@H]2CC[C@@H]1/C2=C\C1CC1 (single isomer, unassigned) [compound 731]	8.00
COc1ccc(C2=NOC3CC(CO)CC23)cc1C(=O)N[C@@H]1C2CCC(/C2=C/C2CC2)[C@@H]1C(=O)Nc1ccc(F)c(C(F)(F)F)c1 (single isomer, unassigned) [compound 432]	8.70
